# Tested on: Candida albicans
# Study Conditions: Concentration 32 ug.mL-1; ASSAY_TEST Inhibition of Fungal Growth; detection method Absorption (OD530)
# Description: Antifungal activity against Candida albicans ATCC 90028 (CO-ADD:FG_001); MIC in YNB media using NBS plates, by OD630
Potency and affinity values are given separately.
So basically: Inhibition at 3% or higher? That is 1 (yes). Lower than 3%? That is 0 (no).

Solved entries (count: 2):
Chemical Structure: CCOC(=O)c1ccc(NC(=O)Cn2nc3c4sc(N5CCCC5)nc4ncn3c2=O)cc1
Label Class: 1 (yes)

Chemical Structure: O=c1n(Cc2nc(-c3ccc(Cl)cc3)no2)nc2ccc(-c3ccccc3)nn12
Label Class: 0 (no)

Decide: Inhibition of CCOc1ccc(-n2ccn3c(SCC(=O)c4c(C)[nH]c5ccccc45)nnc3c2=O)cc1 >= 3%?
0 (no)

Could you please find out whether CCOc1ccc(-n2ccn3c(SCC(=O)Nc4ccc(C)cc4)nnc3c2=O)cc1 has Inhibition that meets 3% or exceeds it?
1 (yes)

Does Inhibition meet or surpass 3% for CCc1nnc2c(S(=O)(=O)N(Cc3cccc(OC)c3)c3ccc(F)cc3)cccn12 ?
1 (yes)

Exam item: decide whether the reported Inhibition for O=C(CSc1nnc2c(=O)n(-c3ccc(F)c(F)c3)ccn12)c1cccc(Cl)c1 is at least 3%.
0 (no)

Reported Inhibition at or above 3%? CCCCOc1ccc(-c2cc3c4nnc(SCC(=O)NCc5ccc(C)cc5)n4ccn3n2)cc1
1 (yes)

Is the recorded value of Inhibition equal to or greater than 3% for this molecule? O=C(Cn1nc2c(Sc3cccc(F)c3)nccn2c1=O)N1CCN(c2ccccc2)CC1
0 (no)
